All values here come from the OligoGym collection.

TARGET_OR_SYSTEM: SLC28A2; note: reference of the scale not given here
ASSAY_COMMENT: pooled miR-30 sensor sort-seq; sequence = guide strand
ASSAY_CONTEXT: shRNA
Threshold rule: sensor-assay potency score (higher = more potent) greater than or equal to -0.8 is satisfied; below that, not satisfied.

SEQUENCE_CODE: TTCTTTTTCCATGAGCTCCAGC
ANSWER_LABEL: satisfied
--
SEQUENCE_CODE: ATCTTCTTGAACAATCTGGCGT
ANSWER_LABEL: not satisfied
--
SEQUENCE_CODE: TTTGTTCTTGTATTGAGACAGT
ANSWER_LABEL: satisfied
--
SEQUENCE_CODE: TCTTCTTGAACAATCTGGCGTG
ANSWER_LABEL: satisfied
--
SEQUENCE_CODE: TTCCAGGACATTCCTCTCCTTC
ANSWER_LABEL: not satisfied
--
SEQUENCE_CODE: TTGGGAAGGAGACACAGTCAGC
ANSWER_LABEL: not satisfied
--
SEQUENCE_CODE: TTGGTGAAACTTGTGTTTGGGA
ANSWER_LABEL: satisfied
--
SEQUENCE_CODE: ATAGTGATTTGTAAAAACCAGG
ANSWER_LABEL: not satisfied
--
SEQUENCE_CODE: TTGAACAATCTGGCGTGTGTTT
ANSWER_LABEL: not satisfied
--
SEQUENCE_CODE: TTGGACAGTCTGTCCACTCTAC
ANSWER_LABEL: satisfied
